The measurements presented in this section are drawn from the supplement of paper PMC8612539.

test system: Pasteurella multocida; assay: minimum inhibitory concentration (MIC); conditions: isolate (source animal id): 128
Let's look at some compounds and their measured minimum inhibitory concentration.

Compound	Target Desc	Measurement Type	Result
CS(=O)(=O)c1ccc([C@@H](O)[C@@H](CF)NC(=O)C(Cl)Cl)cc1 [Florfenicol]	Pasteurella multocida	minimum inhibitory concentration	8 µg/mL
CCC[C@@H]1C[C@@H](C(=O)N[C@@H]([C@H]2O[C@H](SC)[C@H](O)[C@@H](O)[C@H]2O)[C@H](C)Cl)N(C)C1 [Clindamycin]	Pasteurella multocida	minimum inhibitory concentration	> 16 µg/mL
CO/N=C(\C(=O)N[C@@H]1C(=O)N2C(C(=O)O)=C(CSC(=O)c3ccco3)CS[C@H]12)c1csc(N)n1 [Ceftiofur]	Pasteurella multocida	minimum inhibitory concentration	≤ 0.25 µg/mL
CC[C@H]1OC(=O)C[C@@H](O)[C@H](C)[C@@H](O[C@@H]2O[C@H](C)[C@@H](O[C@H]3C[C@@](C)(O)[C@@H](O)[C@H](C)O3)[C@H](N(C)C)[C@H]2O)[C@@H](CC=O)C[C@@H](C)C(=O)/C=C/C(C)=C/[C@@H]1CO[C@@H]1O[C@H](C)[C@@H](O)[C@@H](OC)[C@H]1OC [Tylosin]	Pasteurella multocida	minimum inhibitory concentration	> 32 µg/mL
CC[C@H]1OC(=O)C[C@@H](O)[C@H](C)[C@@H](O[C@@H]2O[C@H](C)[C@@H](O)[C@H](N(C)C)[C@H]2O)[C@@H](CCN2C[C@H](C)C[C@H](C)C2)C[C@@H](C)C(=O)/C=C/C(C)=C/[C@@H]1CO[C@@H]1O[C@H](C)[C@@H](O)[C@@H](OC)[C@H]1OC [Tilmicosin]	Pasteurella multocida	minimum inhibitory concentration	> 16 µg/mL

Moving on to another compound below.
Assign minimum inhibitory concentration to the following record: CCN1CCN(c2cc3c(cc2F)c(=O)c(C(=O)O)cn3C2CC2)CC1 [Enrofloxacin]
≤ 0.12 µg/mL

---

# minimum inhibitory concentration listing for each entry below
test system: Mannheimia haemolytica; test: minimum inhibitory concentration (MIC); details: isolate (source animal id): 260

Compound	Target Desc	minimum inhibitory concentration
CN[C@@H]1[C@H](O)[C@H](NC)[C@H]2O[C@@]3(O)C(=O)C[C@@H](C)O[C@H]3O[C@@H]2[C@H]1O	Mannheimia haemolytica	> 64 µg/mL
CN(C)[C@@H]1C(O)=C(C(N)=O)C(=O)[C@@]2(O)C(O)=C3C(=O)c4c(O)cccc4[C@@](C)(O)[C@H]3C[C@@H]12	Mannheimia haemolytica	> 8 µg/mL
CC[C@H]1OC(=O)C[C@@H](O)[C@H](C)[C@@H](O[C@@H]2O[C@H](C)[C@@H](O[C@H]3C[C@@](C)(O)[C@@H](O)[C@H](C)O3)[C@H](N(C)C)[C@H]2O)[C@@H](CC=O)C[C@@H](C)C(=O)/C=C/C(C)=C/[C@@H]1CO[C@@H]1O[C@H](C)[C@@H](O)[C@@H](OC)[C@H]1OC	Mannheimia haemolytica	> 32 µg/mL

Specify minimum inhibitory concentration for CNC(C)C1CCC(N)C(OC2C(N)CC(N)C(OC3OCC(C)(O)C(NC)C3O)C2O)O1 (stereo not given) , system Mannheimia haemolytica.
4 µg/mL

GET minimum inhibitory concentration | system: Mannheimia haemolytica | item: "CC1(C)S[C@@H]2[C@H](NC(=O)[C@H](N)c3ccccc3)C(=O)N2[C@H]1C(=O)O"
≤ 0.25 µg/mL

---

Reported minimum inhibitory concentration values for the following compounds.
tested on: Escherichia coli; test: minimum inhibitory concentration (MIC); details: isolate (source animal id): 98
// note: answer is a bare numeric in µg/mL

CCCN1C[C@H](C)[C@@H](O)[C@](C)(O)[C@@H](CC)OC(=O)[C@H](C)[C@@H](O[C@H]2C[C@@](C)(OC)[C@@H](O)[C@H](C)O2)[C@H](C)[C@@H](O[C@@H]2O[C@H](C)C[C@H](N(C)C)[C@H]2O)[C@](C)(O)C[C@H]1C 8

Next up:
// fetch minimum inhibitory concentration; item: "CC[C@H]1OC(=O)C[C@@H](O)[C@H](C)[C@@H](O[C@@H]2O[C@H](C)[C@@H](O)[C@H](N(C)C)[C@H]2O)[C@@H](CCN2CCCCC2)C[C@@H](C)C(=O)/C=C/C(C)=C/[C@@H]1CN1CCCCC1" ; system: Escherichia coli
4

---

tested on: Mannheimia haemolytica; assay: minimum inhibitory concentration (MIC); details: isolate (source animal id): 121
Measurement Type: minimum inhibitory concentration (µg/mL)
Express the result in µg/mL but write the number alone.

Below are worked cases with known answers.
CN(C)[C@@H]1C(O)=C(C(N)=O)C(=O)[C@@]2(O)C(O)=C3C(=O)c4c(O)cccc4[C@@](C)(O)[C@H]3C[C@@H]12 8
CS(=O)(=O)c1ccc([C@@H](O)[C@@H](CF)NC(=O)C(Cl)Cl)cc1 2

Consider the additional compound presented here.
Entry "CCCN1C[C@H](C)[C@@H](O)[C@](C)(O)[C@@H](CC)OC(=O)[C@H](C)[C@@H](O[C@H]2C[C@@](C)(OC)[C@@H](O)[C@H](C)O2)[C@H](C)[C@@H](O[C@@H]2O[C@H](C)C[C@H](N(C)C)[C@H]2O)[C@](C)(O)C[C@H]1C" needs its minimum inhibitory concentration filled in; supply it.
4

---

test system: Escherichia coli; assay: minimum inhibitory concentration (MIC); settings: isolate (source animal id): 133
Measurement Type: minimum inhibitory concentration (µg/mL)
Write the value in µg/mL as a bare number.

Here's what some known entries look like.
CCCN1C[C@H](C)[C@@H](O)[C@](C)(O)[C@@H](CC)OC(=O)[C@H](C)[C@@H](O[C@H]2C[C@@](C)(OC)[C@@H](O)[C@H](C)O2)[C@H](C)[C@@H](O[C@@H]2O[C@H](C)C[C@H](N(C)C)[C@H]2O)[C@](C)(O)C[C@H]1C 8
CC1(C)S[C@@H]2[C@H](NC(=O)[C@H](N)c3ccccc3)C(=O)N2[C@H]1C(=O)O 4
CC[C@H]1OC(=O)C[C@@H](O)[C@H](C)[C@@H](O[C@@H]2O[C@H](C)[C@@H](O)[C@H](N(C)C)[C@H]2O)[C@@H](CCN2CCCCC2)C[C@@H](C)C(=O)/C=C/C(C)=C/[C@@H]1CN1CCCCC1 4

// next item, minimum inhibitory concentration requested
Quickly give me recorded minimum inhibitory concentration for "CO/N=C(\C(=O)N[C@@H]1C(=O)N2C(C(=O)O)=C(CSC(=O)c3ccco3)CS[C@H]12)c1csc(N)n1"
0.5

---

The reader will find reported minimum inhibitory concentration values listed item by item below.
test system: Mannheimia haemolytica; assay: minimum inhibitory concentration (MIC); conditions: isolate (source animal id): 55

Some solved cases for reference:
Compound	minimum inhibitory concentration
CN1C[C@@H]2C[C@H]1CN2c1cc2c(cc1F)c(=O)c(C(=O)O)cn2C1CC1 [Danofloxacin]	0.5 µg/mL
COc1cc(NS(=O)(=O)c2ccc(N)cc2)nc(OC)n1 [sulfadimethoxine]	> 256 µg/mL
CC[C@H]1OC(=O)C[C@@H](O)[C@H](C)[C@@H](O[C@@H]2O[C@H](C)[C@@H](O)[C@H](N(C)C)[C@H]2O)[C@@H](CCN2CCCCC2)C[C@@H](C)C(=O)/C=C/C(C)=C/[C@@H]1CN1CCCCC1 [Tildipirosin]	≤ 1 µg/mL
CC1(C)S[C@@H]2[C@H](NC(=O)[C@H](N)c3ccccc3)C(=O)N2[C@H]1C(=O)O [Ampicillin]	≤ 0.25 µg/mL

Quick one: give measured minimum inhibitory concentration for CCCNC[C@]1(O)[C@H](C)O[C@@H](O[C@H]2[C@H](C)[C@@H](O[C@@H]3O[C@H](C)C[C@H](N(C)C)[C@H]3O)[C@](C)(O)C[C@@H](C)CN[C@H](C)[C@@H](O)[C@](C)(O)[C@@H](CC)OC(=O)[C@@H]2C)C[C@@]1(C)OC [Tulathromycin]
≤ 8 µg/mL

---

test system: Pasteurella multocida; experiment: minimum inhibitory concentration (MIC); conditions: isolate (source animal id): 197
compounds and their reported minimum inhibitory concentration

Previously resolved entries follow.
CCCNC[C@]1(O)[C@H](C)O[C@@H](O[C@H]2[C@H](C)[C@@H](O[C@@H]3O[C@H](C)C[C@H](N(C)C)[C@H]3O)[C@](C)(O)C[C@@H](C)CN[C@H](C)[C@@H](O)[C@](C)(O)[C@@H](CC)OC(=O)[C@@H]2C)C[C@@]1(C)OC ≤ 8 µg/mL
CN(C)[C@@H]1C(O)=C(C(N)=O)C(=O)[C@@]2(O)C(O)=C3C(=O)c4c(O)cccc4[C@@](C)(O)[C@H]3C[C@@H]12 > 8 µg/mL
CO/N=C(\C(=O)N[C@@H]1C(=O)N2C(C(=O)O)=C(CSC(=O)c3ccco3)CS[C@H]12)c1csc(N)n1 ≤ 0.25 µg/mL
CN[C@@H]1[C@H](O)[C@H](NC)[C@H]2O[C@@]3(O)C(=O)C[C@@H](C)O[C@H]3O[C@@H]2[C@H]1O > 64 µg/mL
CC1(C)S[C@@H]2[C@H](NC(=O)Cc3ccccc3)C(=O)N2[C@H]1C(=O)O ≤ 0.12 µg/mL
C=C[C@]1(C)C[C@@H](OC(=O)CSCCN(CC)CC)[C@]2(C)[C@H](C)CC[C@]3(CCC(=O)[C@H]32)[C@@H](C)[C@@H]1O 32 µg/mL

# return recorded minimum inhibitory concentration for input "CN1C[C@@H]2C[C@H]1CN2c1cc2c(cc1F)c(=O)c(C(=O)O)cn2C1CC1"
≤ 0.12 µg/mL
